Molecular target: KIT (Homo sapiens)
Sequence (P10721 26-976, species assumed): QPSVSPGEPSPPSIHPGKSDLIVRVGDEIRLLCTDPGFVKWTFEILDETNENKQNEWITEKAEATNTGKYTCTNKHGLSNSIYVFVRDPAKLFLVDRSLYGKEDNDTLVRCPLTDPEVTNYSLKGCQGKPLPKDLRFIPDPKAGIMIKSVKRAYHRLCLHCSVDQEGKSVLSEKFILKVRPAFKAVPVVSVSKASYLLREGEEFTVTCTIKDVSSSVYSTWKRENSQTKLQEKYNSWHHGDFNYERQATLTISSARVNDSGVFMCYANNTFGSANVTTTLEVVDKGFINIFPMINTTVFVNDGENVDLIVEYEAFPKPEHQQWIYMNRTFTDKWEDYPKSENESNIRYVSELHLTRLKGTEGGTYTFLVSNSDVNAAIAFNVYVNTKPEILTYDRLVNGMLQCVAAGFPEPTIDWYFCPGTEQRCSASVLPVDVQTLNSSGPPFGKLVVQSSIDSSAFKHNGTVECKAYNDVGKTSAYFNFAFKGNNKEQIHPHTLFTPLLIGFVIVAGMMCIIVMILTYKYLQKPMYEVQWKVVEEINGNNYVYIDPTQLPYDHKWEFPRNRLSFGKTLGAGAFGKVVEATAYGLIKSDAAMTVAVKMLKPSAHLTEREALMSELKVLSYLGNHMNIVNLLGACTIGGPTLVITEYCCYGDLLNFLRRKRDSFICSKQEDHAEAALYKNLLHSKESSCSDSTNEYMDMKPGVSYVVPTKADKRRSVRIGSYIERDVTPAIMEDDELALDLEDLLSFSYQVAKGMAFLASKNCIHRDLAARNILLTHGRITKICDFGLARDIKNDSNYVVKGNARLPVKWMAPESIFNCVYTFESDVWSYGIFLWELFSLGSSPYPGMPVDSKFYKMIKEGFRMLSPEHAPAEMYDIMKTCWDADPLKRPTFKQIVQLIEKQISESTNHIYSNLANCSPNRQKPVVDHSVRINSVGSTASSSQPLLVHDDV
Quick list: IC50 per entry.

compound | IC50
[2H]C([2H])([2H])n1cc(-c2[nH]c3ncc4c(c3c2-c2ccc3c(c2)COC3(C)C)n([C@@H]2CC[C@@H](NC(=O)OC)C2)c(=O)n4C)c(F)n1 [Example 11] | > 2500 nM
COc1nn(C)cc1-c1[nH]c2ncc3c(c2c1-c1ccc2c(cnn2C)c1)n([C@H]1CC[C@@H](CC#N)CC1)c(=O)n3C [E, reference compound] | 1250 to 2500 nM
[2H]C([2H])([2H])n1cc(-c2[nH]c3ncc4c(c3c2-c2ccc3c(c2)COC3(C)C)n([C@@H]2CC[C@@H](NC(=O)OC)C2)c(=O)n4C([2H])([2H])[2H])c(F)n1 [Example 8] | 1250 to 2500 nM
COC(=O)N[C@@H]1CC[C@@H](n2c(=O)n(C)c3cnc4[nH]c(-c5cn(C)nc5OC)c(-c5cccc(F)c5)c4c32)C1 [Example 3] | 1250 to 2500 nM
[2H]C([2H])([2H])n1c(=O)n([C@@H]2CC[C@@H](NC(=O)OC)C2)c2c3c(-c4ccc5c(c4)COC5(C)C)c(-c4cn(C([2H])([2H])C([2H])([2H])[2H])nc4F)[nH]c3ncc21 [Example 19] | > 2500 nM

---

Quick reference: IC50 of the listed items.
Molecular target: catalytic domain (JH1, amino acids 826-1132) of human JAK2 (Homo sapiens)
Construct: catalytic domain (JH1, amino acids 826-1132) of human JAK2; FLAG (N); biotin (biotinylated); purchased Carna Biosciences 08-445-20N; host or cells: baculovirus expression system
Sequence (O60674 826-1132): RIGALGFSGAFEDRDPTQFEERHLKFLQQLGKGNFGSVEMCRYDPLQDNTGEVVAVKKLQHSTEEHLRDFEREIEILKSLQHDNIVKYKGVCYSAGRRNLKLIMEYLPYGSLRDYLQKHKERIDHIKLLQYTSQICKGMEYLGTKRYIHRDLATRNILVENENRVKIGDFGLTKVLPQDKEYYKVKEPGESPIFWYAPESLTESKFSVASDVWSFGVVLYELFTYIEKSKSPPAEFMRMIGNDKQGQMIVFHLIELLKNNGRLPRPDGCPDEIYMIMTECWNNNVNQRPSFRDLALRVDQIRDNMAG
Experiment: JAK2 LanthaScreen JH1 binding assay
Settings: Table A; read-out: JH1 Bind IC50

query smiles | IC50
[2H]C([2H])([2H])n1cc(-c2[nH]c3ncc4c(c3c2-c2ccc3c(cnn3CC(F)F)c2)n([C@@H]2CC[C@@H](NC(=O)OC)C2)c(=O)n4C([2H])([2H])[2H])c(F)n1 | > 1000 nM
[2H]C([2H])([2H])n1ncc2cc(-c3c(-c4cn(C([2H])([2H])C([2H])([2H])[2H])nc4F)[nH]c4ncc5c(c34)n([C@@H]3CC[C@@H](NC(=O)OC)C3)c(=O)n5C([2H])([2H])[2H])ccc21 | > 1000 nM
[2H]C([2H])([2H])n1c(=O)n([C@@H]2CC[C@@H](NC(=O)OC)C2)c2c3c(-c4ccc5c(c4)COC5(C)C)c(-c4cn(CC(F)F)nc4F)[nH]c3ncc21 | > 1000 nM

---

Heads up, these compounds all have IC50 values measured for TRKA (Homo sapiens).
quantity measured: IC50

compound | quantity measured | readout value
[2H]C([2H])([2H])n1cc(-c2[nH]c3ncc4c(c3c2-c2ccc3c(cnn3CC(F)F)c2)n([C@@H]2CC[C@@H](NC(=O)OC)C2)c(=O)n4C)c(F)n1 | IC50 | > 2.5 µM
[2H]C([2H])([2H])n1ncc2cc(-c3c(-c4cn(C)nc4OC)[nH]c4ncc5c(c34)n([C@@H]3CC[C@@H](NC(=O)OC)C3)c(=O)n5C)ccc21 | IC50 | > 2.5 µM
COc1nn(C)cc1-c1[nH]c2ncc3c(c2c1-c1ccc2c(cnn2C)c1)n([C@H]1CC[C@@H](CC#N)CC1)c(=O)n3C [E, reference compound] | IC50 | 0.25 to 1.25 µM
[2H]C([2H])([2H])n1cc(-c2[nH]c3ncc4c(c3c2-c2ccc3c(cnn3C([2H])([2H])[2H])c2)n([C@@H]2CC[C@@H](NC(=O)OC)C2)c(=O)n4C([2H])([2H])[2H])c(F)n1 | IC50 | > 2.5 µM
[2H]C([2H])([2H])Oc1ccc(-c2c(-c3cn(C([2H])([2H])[2H])nc3F)[nH]c3ncc4c(c23)n([C@@H]2CC[C@@H](NC(=O)OC)C2)c(=O)n4C([2H])([2H])[2H])cc1 | IC50 | 1.25 to 2.5 µM

---

Target: pseudo-kinase domain (JH2) of human V617F mutant JAK2 (Homo sapiens, UniProt O60674, F794H/V617F/W659A/W777A)
Construct: pseudo-kinase domain (JH2, amino-acids 536-812 with 3 surface mutations W659A, W777A, F794H); His (C); purchased BPS Bioscience 79498; host or cells: baculovirus expression system
Sequence (O60674 536-812 V617F/W659A/W777A/F794H): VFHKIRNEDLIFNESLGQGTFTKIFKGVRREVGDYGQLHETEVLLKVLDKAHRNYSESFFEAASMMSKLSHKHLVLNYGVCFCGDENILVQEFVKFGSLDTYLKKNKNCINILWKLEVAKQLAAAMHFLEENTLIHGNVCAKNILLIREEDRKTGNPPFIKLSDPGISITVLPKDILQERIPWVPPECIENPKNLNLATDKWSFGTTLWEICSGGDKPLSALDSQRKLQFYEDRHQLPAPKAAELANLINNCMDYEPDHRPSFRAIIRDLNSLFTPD
Assay: JAK2 LanthaScreen JH2-V617F binding assay
Conditions: Table A; read-out: JH2 V617F Bind IC50

query smiles | IC50
[2H]C([2H])([2H])n1cc(-c2[nH]c3ncc4c(c3c2-c2ccc3c(cnn3CC(F)F)c2)n([C@@H]2CC[C@@H](NC(=O)OC)C2)c(=O)n4C([2H])([2H])[2H])c(F)n1 | ≤ 10 nM
[2H]C([2H])([2H])n1c(=O)n([C@@H]2CC[C@@H](NC(=O)OC)C2)c2c3c(-c4ccc5c(c4)COC5(C)C)c(-c4cn(C([2H])([2H])C([2H])([2H])[2H])nc4F)[nH]c3ncc21 | ≤ 10 nM
[2H]C([2H])([2H])n1ncc2cc(-c3c(-c4cn(C([2H])(C([2H])([2H])[2H])C([2H])([2H])[2H])nc4F)[nH]c4ncc5c(c34)n([C@@H]3CC[C@@H](NC(=O)OC)C3)c(=O)n5C([2H])([2H])[2H])ccc21 | ≤ 10 nM
COC(=O)N[C@@H]1CC[C@@H](n2c(=O)n(C)c3cnc4[nH]c(-c5cn(C)nc5OC)c(-c5ccccc5)c4c32)C1 | ≤ 10 nM
[2H]C([2H])([2H])n1cc(-c2[nH]c3ncc4c(c3c2-c2ccc3c(cnn3C(C)C)c2)n([C@@H]2CC[C@@H](NC(=O)OC)C2)c(=O)n4C([2H])([2H])[2H])c(F)n1 | ≤ 10 nM
[2H]C([2H])([2H])n1cc(-c2[nH]c3ncc4c(c3c2-c2ccc(C(C)(C)O)cc2)n([C@@H]2CC[C@@H](NC(=O)OC)C2)c(=O)n4C([2H])([2H])[2H])c(F)n1 | ≤ 10 nM
[2H]C([2H])([2H])n1c(=O)n([C@@H]2CC[C@@H](NC(=O)OC)C2)c2c3c(-c4ccc5c(c4)COC5(C)C)c(-c4cn(CC)nc4F)[nH]c3ncc21 | ≤ 10 nM
[2H]C([2H])([2H])n1cc(-c2[nH]c3ncc4c(c3c2-c2ccc3c(c2)COC3(C)C)n([C@@H]2CC[C@@H](NC(=O)OC)C2)c(=O)n4C([2H])([2H])[2H])c(F)n1 | ≤ 10 nM
[2H]C([2H])([2H])n1cc(-c2[nH]c3ncc4c(c3c2-c2cc(F)c3c(cnn3C([2H])([2H])[2H])c2)n([C@@H]2CC[C@@H](NC(=O)OC)C2)c(=O)n4C([2H])([2H])[2H])c(F)n1 | ≤ 10 nM
[2H]C([2H])([2H])n1c(=O)n([C@@H]2CC[C@@H](NC(=O)OC)C2)c2c3c(-c4ccc5c(c4)COC5(C)C)c(-c4cn(CC(F)F)nc4F)[nH]c3ncc21 | ≤ 10 nM
COC(=O)N[C@@H]1CC[C@@H](n2c(=O)n(C)c3cnc4[nH]c(-c5cn(C)nc5OC)c(-c5ccc(OC)c(F)c5)c4c32)C1 | ≤ 10 nM
COC(=O)N[C@@H]1CC[C@@H](n2c(=O)n(C)c3cnc4[nH]c(-c5cn(C)nc5OC)c(-c5cccc(F)c5)c4c32)C1 | ≤ 10 nM
[2H]C([2H])([2H])n1ncc2cc(-c3c(-c4cn(C)nc4OC)[nH]c4ncc5c(c34)n([C@@H]3CC[C@@H](NC(=O)OC)C3)c(=O)n5C)ccc21 | ≤ 10 nM
COC(=O)N[C@@H]1CC[C@@H](n2c(=O)n(C)c3cnc4[nH]c(-c5cn(C)nc5OC)c(-c5ccc(F)cc5)c4c32)C1 | ≤ 10 nM
[2H]C([2H])([2H])n1cc(-c2[nH]c3ncc4c(c3c2-c2ccc3c(cnn3C([2H])([2H])[2H])c2)n([C@@H]2CC[C@@H](NC(=O)OC)C2)c(=O)n4C([2H])([2H])[2H])c(F)n1 | ≤ 10 nM
[2H]C([2H])([2H])Oc1ccc(-c2c(-c3cn(C([2H])([2H])[2H])nc3F)[nH]c3ncc4c(c23)n([C@@H]2CC[C@@H](NC(=O)OC)C2)c(=O)n4C([2H])([2H])[2H])cc1 | ≤ 10 nM
[2H]C([2H])([2H])n1cc(-c2[nH]c3ncc4c(c3c2-c2ccc3c(cnn3C(C)C)c2)n([C@@H]2CC[C@@H](NC(=O)OC)C2)c(=O)n4C)c(F)n1 | ≤ 10 nM
[2H]C([2H])([2H])n1cc(-c2[nH]c3ncc4c(c3c2-c2ccc3c(cnn3CC(F)F)c2)n([C@@H]2CC[C@@H](NC(=O)OC)C2)c(=O)n4C)c(F)n1 | ≤ 10 nM
[2H]C([2H])([2H])n1ncc2cc(-c3c(-c4cn(C([2H])([2H])C([2H])([2H])[2H])nc4F)[nH]c4ncc5c(c34)n([C@@H]3CC[C@@H](NC(=O)OC)C3)c(=O)n5C([2H])([2H])[2H])ccc21 | ≤ 10 nM
[2H]C([2H])([2H])n1cc(-c2[nH]c3ncc4c(c3c2-c2ccc3c(c2)COC3(C)C)n([C@@H]2CC[C@@H](NC(=O)OC)C2)c(=O)n4C)c(F)n1 | ≤ 10 nM
[2H]C([2H])([2H])n1cc(-c2[nH]c3ncc4c(c3c2-c2ccc(F)cc2)n([C@@H]2CC[C@@H](NC(=O)OC)C2)c(=O)n4C([2H])([2H])[2H])c(F)n1 | ≤ 10 nM
